assay: Pharmacokinetics in SD rats, single dose intragastric and intravenous; assay type: in vivo; details: male, rat, plasma, oral administration, 10 mg/kg, read-out: Peak drug concentration Cmax

- Smiles: "COc1cccc2c1cc1n2CCN(CC[C@H]2CC[C@H](NC(=O)N(C)C)CC2)C1"
  Cmax (ng/mL): 1000
- Smiles: "COc1cccc2c3c([nH]c12)CN(CC[C@H]1CC[C@H](NC(=O)N(C)C)CC1)CC3"
  Cmax (ng/mL): 734
- Smiles: "COc1cccc2c1cc1n2CCN(CCCCOc2ccc3ccc(=O)[nH]c3c2)C1"
  Cmax (ng/mL): 1150
- Smiles: "COc1cccc2c1cc1n2CCN(CCCCOc2ccc3c(c2)NC(=O)CC3)C1"
  Cmax (ng/mL): 1310
- Smiles: "COc1cccc2c3c(oc12)CN(CC[C@H]1CC[C@H](NC(=O)N(C)C)CC1)CC3"
  Cmax (ng/mL): 963

Attribution: patent US20250109139A1
